# System: Staphylococcus aureus
# METHOD: Antibacterial activity against gentamicin-and methicillin-resistant Staphylococcus aureus ATCC 33592 assessed as reduction in bacterial growth incubated for 14 to 16 hrs in presence of 1 uM 1-(2-(1H-benzo[d]imidazol-1-yl)quinolin-8-yl)-3-(3,5-bis(trifluoromethyl)phenyl)thiourea by microbroth dilution method
# Type: functional
# COND: time 14-16 hrs
VALUE KIND: MIC (µM)
Unit µM implied. Number only.

// worked examples, MIC included
COMPOUND	STUDY TARGET	UNITS SYMBOL	MIC
NC[C@H]1O[C@H](O[C@H]2[C@H](O)[C@@H](O[C@H]3O[C@H](CO)[C@@H](O)[C@H](N)[C@H]3O)[C@H](N)C[C@@H]2N)[C@H](O)[C@@H](O)[C@@H]1O [KANAMYCIN]	Staphylococcus aureus	µM	155
CC1(C)S[C@@H]2[C@H](NC(=O)[C@H](N)c3ccccc3)C(=O)N2[C@H]1C(=O)O [AMPICILLIN]	Staphylococcus aureus	µM	2.1
CN(C)[C@@H]1C(O)=C(C(N)=O)C(=O)[C@@]2(O)C(O)=C3C(=O)c4c(O)cccc4[C@@](C)(O)[C@H]3C[C@@H]12 [TETRACYCLINE]	Staphylococcus aureus	µM	168

**Query** I'd like to know its MIC. The compound in question is CC(C)(O/N=C(\C(=O)N[C@@H]1C(=O)N2C(C(=O)[O-])=C(C[n+]3ccccc3)CS[C@H]12)c1csc(N)n1)C(=O)O [CEFTAZIDIME]
**Result** 229

**Query** I'd like to know its MIC. The compound in question is CC1(C)S[C@@H]2[C@H](NC(=O)[C@H](N)c3ccc(O)cc3)C(=O)N2[C@H]1C(=O)O [AMOXICILLIN]
**Result** 17

---

# Test system: Staphylococcus aureus
# METHOD: Antibacterial activity against gentamicin-and methicillin-resistant Staphylococcus aureus ATCC 33592 assessed as reduction in bacterial growth incubated for 14 to 16 hrs in presence of 1 uM 1-(2-(1H-benzo[d]imidazol-1-yl)quinolin-8-yl)-3-(3,5-bis(trifluoromethyl)phenyl)thiourea and 200 uM ZnCl2 by microbroth dilution method
# Type: functional
# COND: time 14-16 hrs
Below, each entry is listed with its recorded MIC.
Unit µM implied. Number only.

// worked examples, MIC included
SMILES DATA	STUDY TARGET	MIC (µM)
NC[C@H]1O[C@H](O[C@H]2[C@H](O)[C@@H](O[C@H]3O[C@H](CO)[C@@H](O)[C@H](N)[C@H]3O)[C@H](N)C[C@@H]2N)[C@H](O)[C@@H](O)[C@@H]1O	Staphylococcus aureus	0.31
CC1(C)S[C@@H]2[C@H](NC(=O)[C@H](N)c3ccc(O)cc3)C(=O)N2[C@H]1C(=O)O	Staphylococcus aureus	0.05
CC(C)(O/N=C(\C(=O)N[C@@H]1C(=O)N2C(C(=O)[O-])=C(C[n+]3ccccc3)CS[C@H]12)c1csc(N)n1)C(=O)O	Staphylococcus aureus	0.15

**Query** I'd like to know its MIC. The compound in question is `CC1(C)S[C@@H]2[C@H](NC(=O)[C@H](N)c3ccccc3)C(=O)N2[C@H]1C(=O)O`
**Result** 0.03

**Query** I'd like to know its MIC. The compound in question is `CN(C)[C@@H]1C(O)=C(C(N)=O)C(=O)[C@@]2(O)C(O)=C3C(=O)c4c(O)cccc4[C@@](C)(O)[C@H]3C[C@@H]12`
**Result** 0.18
